- test: in vitro
- Type: cell-based
- reported_conditions: mouse
quantity: CC50 at 3 days (µM)
Please give a number only; it is taken to be in µM.

What CC50 at 3 days value was documented for this compound, COc1ccc(NC(=O)c2nc(S(C)(=O)=O)ncc2Cl)cc1Cl [AC2P36] ? 17
